target: SYK (Homo sapiens, UniProt P43405); construct: purchased BPS Bioscience, CA, USA; assay: SYK enzyme assay (Flash plate assay / Caliper mobility shift assay); assay type: biochemical; conditions: at 3 μM; 100% corresponds to zero effect, −50% corresponds to IC50
Listed next: entries and their corresponding SYK (enzyme assay) % at 3 μM.

| Compound String | SYK (enzyme assay) % at 3 μM |
| --- | --- |
| COc1cc(N2CCN(C)CC2)ccc1Nc1nc2cncc(-c3cnn(C)c3)n2n1 | −9@3% |
| CN1CCN(c2ncc(Nc3nc4cncc(-c5cnn(C)c5)n4n3)cn2)CC1 | −13@3% |
| N#Cc1cc(-c2cncc3nc(Nc4ccc(N5CCOCC5)cc4)nn23)ccc1OC1CCOCC1 | −30@3% |
| COc1cc(Nc2nc3cncc(-c4cnn(CCN5CCOCC5)c4)n3n2)ccc1N1CCN(C)CC1 | −21@3% |

###

target: GCN2 (Homo sapiens)
Sequence (Q9P2K8 whole entry): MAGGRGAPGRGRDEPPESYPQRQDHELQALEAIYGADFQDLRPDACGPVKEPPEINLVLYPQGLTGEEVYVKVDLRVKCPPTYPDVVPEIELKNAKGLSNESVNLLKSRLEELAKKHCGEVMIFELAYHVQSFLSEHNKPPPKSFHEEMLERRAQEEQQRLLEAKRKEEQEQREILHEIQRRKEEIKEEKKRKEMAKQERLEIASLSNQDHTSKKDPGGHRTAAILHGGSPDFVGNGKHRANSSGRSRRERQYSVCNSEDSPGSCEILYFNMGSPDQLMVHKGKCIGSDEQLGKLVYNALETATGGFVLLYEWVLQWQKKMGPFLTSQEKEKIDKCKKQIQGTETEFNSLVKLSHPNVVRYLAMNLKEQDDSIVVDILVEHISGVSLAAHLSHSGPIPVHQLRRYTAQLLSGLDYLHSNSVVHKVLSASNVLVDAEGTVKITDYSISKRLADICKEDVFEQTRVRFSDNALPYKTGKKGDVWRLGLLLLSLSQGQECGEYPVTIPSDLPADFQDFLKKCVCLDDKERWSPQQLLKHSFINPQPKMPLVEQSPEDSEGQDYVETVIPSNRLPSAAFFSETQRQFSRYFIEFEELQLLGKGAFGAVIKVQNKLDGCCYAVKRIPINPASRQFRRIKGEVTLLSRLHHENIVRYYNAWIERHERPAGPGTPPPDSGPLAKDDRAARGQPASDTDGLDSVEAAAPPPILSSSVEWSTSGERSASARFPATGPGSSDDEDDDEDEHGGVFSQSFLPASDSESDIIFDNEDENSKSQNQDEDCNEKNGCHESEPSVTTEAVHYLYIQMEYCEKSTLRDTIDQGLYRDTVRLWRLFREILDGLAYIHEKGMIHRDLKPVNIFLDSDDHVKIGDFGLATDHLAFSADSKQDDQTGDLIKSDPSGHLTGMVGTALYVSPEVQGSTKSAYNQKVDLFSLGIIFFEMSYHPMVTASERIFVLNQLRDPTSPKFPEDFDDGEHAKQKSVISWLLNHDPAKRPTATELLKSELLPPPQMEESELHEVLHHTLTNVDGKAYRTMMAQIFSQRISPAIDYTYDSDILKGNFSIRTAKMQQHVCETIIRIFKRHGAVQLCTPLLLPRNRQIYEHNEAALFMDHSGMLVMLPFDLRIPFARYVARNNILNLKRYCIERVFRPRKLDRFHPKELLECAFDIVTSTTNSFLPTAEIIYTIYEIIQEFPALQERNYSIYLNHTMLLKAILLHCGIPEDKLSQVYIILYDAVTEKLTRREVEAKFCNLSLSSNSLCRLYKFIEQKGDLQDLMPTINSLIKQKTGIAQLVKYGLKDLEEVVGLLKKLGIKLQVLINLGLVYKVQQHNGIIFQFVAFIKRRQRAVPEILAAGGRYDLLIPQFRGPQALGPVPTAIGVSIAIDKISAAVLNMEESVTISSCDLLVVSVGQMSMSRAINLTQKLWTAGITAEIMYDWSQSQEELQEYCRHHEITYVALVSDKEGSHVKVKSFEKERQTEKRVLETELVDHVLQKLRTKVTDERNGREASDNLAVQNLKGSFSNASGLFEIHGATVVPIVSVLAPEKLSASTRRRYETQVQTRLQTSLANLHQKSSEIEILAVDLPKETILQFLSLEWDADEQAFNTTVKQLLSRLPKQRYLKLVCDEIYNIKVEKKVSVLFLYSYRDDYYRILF
pIC50: −log10 of the molar value.
Listed next: entries and their corresponding pIC50.

| Compound String | pIC50 |
| --- | --- |
| Cc1cc(Nc2nc3cncc(-c4cnc5ccccc5c4)n3n2)ccc1N1CCN(C)CC1 | 5.30 to 6.00 |
| COc1cc(Nc2nc3cncc(-c4cnn(C)c4)n3n2)ccc1CN1CCOCC1 | > 6.00 |
| Cn1cc(-c2cncc3nc(Nc4ccc5c(c4)NC(=O)C5(C)C)nn23)cn1 | > 6.00 |
| O=C1Cc2cc(Nc3nc4cncc(-c5cnn(CCN6CCOCC6)c5)n4n3)ccc2N1 | 5.30 to 6.00 |
